Where do these numbers come from? They come from patent US20220056137A1.

assayed.target: T1, human PD-L1 protein (soluble) (human, UniProt Q9NZQ7 19-239)
T1 construct: also called PD-L1 (R&D Systems); His-tagged PD-L1 protein
T1 sequence (Q9NZQ7 19-239 limits assumed): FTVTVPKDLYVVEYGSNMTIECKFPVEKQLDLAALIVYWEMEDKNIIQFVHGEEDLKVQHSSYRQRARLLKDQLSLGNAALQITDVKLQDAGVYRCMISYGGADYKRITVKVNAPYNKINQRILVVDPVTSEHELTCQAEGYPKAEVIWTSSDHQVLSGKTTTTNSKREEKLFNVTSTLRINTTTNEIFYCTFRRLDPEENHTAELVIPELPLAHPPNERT
protocol.summary: SPR, mAb captured on anti-human IgG Fc, PD-L1 as analyte;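 also: array SPR with mAb supernatants captured at several densities, PD-L1 injected for 5 min then 15 min dissociation, non-regenerative kinetic series, double-referenced against interspot surface and blank injection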
Labelling field: enter MET if recorded koff is less than 0.01 s⁻¹. Enter NOT MET if it equals or exceeds that cut-off.

Answer whether the binder antibody A5 (antibody, V domains shown, Tested as full-length mAb made in CHO cells; also called L5H5) VH: QVQLVESGGGVVQPGRSLRLSCAASGFAFSSYGMHWVRQAPGKGLEWVALIWFDGNNKFYADSVKGRFTISRDNSKNTLYLQMNSLRAEDTAVYYCARDTTAASFDYWGQGTLVTVSS VL: EIVMTQSPATLSLSPGERATLSCRASQSVSSTYLSWYQQKPGQAPRLLIFGASTRATGIPARFSGSGSGTDFTLTISSLQPEDFAVYYCQQDYNLPPTFGPGTKVDIK has koff strictly less than 0.01 s⁻¹
MET

Please determine if antibody A11 (antibody, V domains shown, Tested as full-length mAb made in CHO cells; also called L11H11) VH: QVQLVESGGGVVQPGRSLRLSCAASGFTFSSYGIHWVRQAPGKGLEWVAVIWSDGSNKFYADSVKGRFTISRDNSKNTLFLQMSSLRAEDTAVYYCARDIAAAIDYWGQGTLVTVSS VL: AIQMTQSPSSLSASVGDRVTITCRASQGIRNDLGWYQQKPGKAPKLLIYAASSLQSGVPSRFSGSGSGTDFTLTISSLQPEDFATYYCLQDYNYPYTFGQGTKLEIK is below 0.01 s⁻¹ in terms of koff.
NOT MET

Is the reported koff for antibody A4 (antibody, V domains shown, Tested as full-length mAb made in CHO cells; also called L4H4) VH: QVQLVESGGGVVQPGRSLRLSCAASGFTFSNYGMHWVRQAPGKGLEWVAVIWFDGNTKYYTDSVKGRFTISRDNSKNTLYLQMNSLRAEDTAVYYCARDITMVPMDVWGQGTTVTVSS VL: AIQMTQSPSSLSASVGDRVTITCRASQDIRNDLGWYQQQPGKAPKLLIYAASSLQSGVPSRFSGSGSGTDFTLTISSLQPEDFATYYCLQDYNYPPTFGQGTKVEIK strictly below 0.01 s⁻¹?
MET

A record lists antibody A9 (antibody, V domains shown, Tested as full-length mAb made in CHO cells; also called L9H9) VH: QVQLVESGGGVVQPGRSLRLSCAASGFTFSSYGMHWVRQAPGKGLEWVAVIWFDGNNKYYADSVKGRFTISRDNSKNTLYLQMNSLRAEDTAVYYCARDVTTVPFDYWGQGTLVTVSS VL: EIVMTQSPATLSLSPGERATLSCRASQSVSSSYLSWYQQKPGQAPRLLMYGASTRATGIPARFSGSGSGTDFTLTISSLQPEDFAVYYCQQDYNLPYTFGQGTKLEIK . Is its koff below 0.01 s⁻¹?
MET

Item antibody A20 (antibody, V domains shown, Tested as full-length mAb made in CHO cells; also called L20H20) VH: QVQLQESGPGLVKPSETLSLTCTVSGGSISSYYWSWIRQPPGKGLEWIGYIYYSGSTNYNPSLKSRVTISVDTSKNQFSLKLSSVTAADTAVYYCARDDRIAVGPYYYYYGMDVWGQGTTVTVSS VL: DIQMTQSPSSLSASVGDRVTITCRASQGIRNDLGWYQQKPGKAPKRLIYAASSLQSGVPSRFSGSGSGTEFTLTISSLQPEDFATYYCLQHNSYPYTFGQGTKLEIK : koff beneath 0.01 s⁻¹, strictly?
NOT MET

Consider now this further binder.
Item antibody A10 (antibody, V domains shown, Tested as full-length mAb made in CHO cells; also called L10H10) VH: QVQLVESGGGVVQPGRSLRLSCAASGFTFSSYGMHWVRQAPGKGLEWVAVIWYDGINKYYADSVKGRFTISRDNSKNTLYLQMNSLRAEDTAVYYCARDSTASPFDYWGQGTLVTVSS VL: EIVMTQSPATLSLSPGERATLSCRASQSVSSSYLSWYQQKPGQAPRLLIYGASTRATGIPARFSGSGSGTDFTLTISSLQPEDFAVYYCQQDYNLPHTFGQGTKLEIK : koff beneath 0.01 s⁻¹, strictly?
NOT MET
